- System: Serratia marcescens
- Protocol Details: MIC against Gram-negative bacteria: Serratia marcescens
- Format: cell-based
- Experimental Setup: Serratia marcescens; 5×10^5 CFU/mL; 10 h cultivation at 37° C.
- Method: 1. Gram-negative bacteria, such as E. coli BL21, Pseudomonas aeruginosa, Klebsiella pneumonia, Enterobacter cloacae, Aeromonas hydrophila, Citrobacter diversus, Moraxella catarrhalis, Proteus mirabilis, Proteus vulgaris, Serratia marcescens, etc were streaked on solid LB medium and cultured respectively. Then, typical clones were picked, inoculated into common liquid LB medium respectively, and cultured at 37° C. with shaking at 185 rpm until the McFarland specific turbidity was 0.5. […]
Recorded MIC against S. marcescens, one value per entry.
Response body: numeric value in µg/mL, unit text excluded.

Use these answered entries as a reference point.
- Substance: "PRT1391 (PLPVCQEQCSGHGTFLLDAGVCSCDPKWTGSDCS; listed as Homo sapiens)"
  Target System: "Serratia marcescens"
  MIC against S. marcescens, µg/mL: 12.5
- Substance: "PRT1424 (CQMFCNQTACPADCDPNTQASCECPEGYILDDGFICT; listed as Homo sapiens)"
  Target System: "Serratia marcescens"
  MIC against S. marcescens, µg/mL: 25
- Substance: "PRT1390 (EEDCLDPMCSNHGICVKGECHCSTGWGGVNCET; listed as Homo sapiens)"
  Target System: "Serratia marcescens"
  MIC against S. marcescens, µg/mL: 50

Shifting focus to the substance that follows.
Problem: Recorded MIC against S. marcescens of PRT1384 (STRTCPRDCRGRGRCEDGECICDTGYSGDDC; listed as Homo sapiens) , please.
Solution: 25

###

- Test system: Klebsiella pneumonia
- Protocol Details: MIC against Gram-negative bacteria: Klebsiella pneumonia
- Assay type: cell-based
- Experimental Setup: Klebsiella pneumonia; 96-well plate, 5×10^5 CFU/mL, 37° C., 10 h
Entries and their measured MIC against K. pneumonia follow.
Provide the reading as a plain figure in µg/mL.

- Substance: "PRT1262 (DVDECSMSNGSCDQGCVNTKGSYECVCPPGRRLHWNGKDCV; listed as Homo sapiens)"
  MIC against K. pneumonia (µg/mL): 25
- Substance: "PRT1343 (VFHECFFNPCHNSGTCQQLGRGYVCLCPLGYTGLKCE; listed as Homo sapiens)"
  MIC against K. pneumonia (µg/mL): 25
- Substance: "PRT1205 (EHDECITNQHNCDENALCFNTVGGHNCVCKPGYTGNGTTCK; listed as Homo sapiens)"
  MIC against K. pneumonia (µg/mL): 25
- Substance: "PRT1228 (CPPCPKYASCHNSTHCTCEDGFRARSGRTYFHDSSEKCE; listed as Homo sapiens)"
  MIC against K. pneumonia (µg/mL): 25
- Substance: "PRT1336 (DCNQCPGGFSNPCSGNGQCADSLGGNGTCICEEGFQGSQCQ; listed as Homo sapiens)"
  MIC against K. pneumonia (µg/mL): 50
- Substance: "PRT1231 (IGPSCLKFCSGRGQCTRHGCKCDPGFSGPACE; listed as Homo sapiens)"
  MIC against K. pneumonia (µg/mL): 12.5

Problem: Could you tell me which MIC against K. pneumonia is on file for PRT1234 (LASGCPWMCSGRGICDAGRCVCDRGFGGPYCV; listed as Homo sapiens) ?
Solution: 25

###

- System: E. coli BL21
- Protocol Details: MIC against Gram-negative bacteria: E. coli BL21
- Format: cell-based
- Experimental Setup: E. coli BL21; 10 h cultivation at 37° C.; 5×10^5 CFU/mL
Property Name: MIC (µg/mL)
API: value field is a number in µg/mL; no unit string.

Reference set, count: 3
- Substance: "PRT424 (DINECVTDLHTCSRGEHCVNTLGSFHCYKALTCEPGYALKDGECE; listed as Homo sapiens)"
  MIC (µg/mL): 50
- Substance: "PRT428 (DVNECWASPGRLCQHTCENTLGSYRCSCASGFLLAADGKRCE; listed as Homo sapiens)"
  MIC (µg/mL): 25
- Substance: "PRT423 (QPNTCKDNGPCKQVCSTVGGSAICSCFPGYAIMADGVSCE; listed as Homo sapiens)"
  MIC (µg/mL): 25

Turning now to a further record.
Problem: Recorded MIC for PRT317 (VTDYCQLVRYLCQNGRCIPTPGSCRCECNKGFQLDLRGECI; listed as Homo sapiens) , please?
Solution: 50

###

- System: Pseudomonas aeruginosa
- Protocol Details: MIC against Gram-negative bacteria: Pseudomonas aeruginosa
- Type: cell-based
- Experimental Setup: 10 h cultivation at 37° C., 5×10^5 CFU/mL, two-fold serial dilution
Examples of substances with documented MIC P. aeruginosa follow.

- Substance: "PRT1148 (NINECSSSPCLHGADCEDHINGYVCKCQPGWSGHHCE; listed as Homo sapiens)"
  MIC P. aeruginosa: "12.5 µg/mL"
- Substance: "PRT1144 (NANDCLSNPCLHGRCTELINEYPCSCDADGTSTQCK; listed as Homo sapiens)"
  MIC P. aeruginosa: "50 µg/mL"
- Substance: "PRT1069 (VTNPCDRKKCEWLCLLSPSGPVCTCPNGKRLDNGTCV; listed as Homo sapiens)"
  MIC P. aeruginosa: "12.5 µg/mL"
- Substance: "PRT1086 (HFKPCRDKDLAYCLNDGECFVIETLTGSHKHCRCKEGYQGVRCD; listed as Homo sapiens)"
  MIC P. aeruginosa: "50 µg/mL"
- Substance: "PRT1055 (GADPCLYQNGGCEHICKKRLGTAWCSCREGFMKASDGKTCL; listed as Homo sapiens)"
  MIC P. aeruginosa: "12.5 µg/mL"

Problem: Which MIC P. aeruginosa is reported for this substance? PRT1062 (LQGNCSRLGCQHHCVPTLDGPTCYCNSSFQLQADGKTCK; listed as Homo sapiens)
Solution: 25 µg/mL

Problem: MIC P. aeruginosa lookup needed for PRT1169 (RDSQCDEATCNNGGTCYDEGDAFKCMCPGGWEGTTCN; listed as Homo sapiens) , thanks.
Solution: 50 µg/mL

Problem: I would be grateful if you could share the reported MIC P. aeruginosa for PRT1046 (WGFSCNASCQCAHEAVCSPQTGACTCTPGWHGAHCQ; listed as Homo sapiens) .
Solution: 50 µg/mL

###

- System: Serratia marcescens
- Protocol Details: MIC against Gram-negative bacteria: Serratia marcescens
- Assay type: cell-based
- Experimental Setup: 96-well plate, 5×10^5 CFU/mL, 37° C., 10 h
Property Name: MIC S. marcescens (µg/mL)
Please respond with the number in µg/mL and leave the unit unwritten.

Here are 4 substances together with their reported answers.
- Substance: "PRT627 (CTCNPAGSLDTCDPRSGRCPCKENVEGNLCDRCRPGTFNLQPHNPAGCSS; listed as Homo sapiens)"
  MIC S. marcescens (µg/mL): 50
- Substance: "PRT616 (CDCNGKSRQCIFDRELHRQTGNGFRCLNCNDNTDGIHCEKCKNGFYRHRERDRCLP; listed as Homo sapiens)"
  MIC S. marcescens (µg/mL): 12.5
- Substance: "PRT599 (CECDPDGTISGGICVSHSDPALGSVAGQCLCKENVEGAKCDQCKPNHYGLSATDPLGCQP; listed as Homo sapiens)"
  MIC S. marcescens (µg/mL): 50
- Substance: "PRT615 (CDCHALGSTNGQCDIRTGQCECQPGITGQHCERCEVNHFGFGPEGCKP; listed as Homo sapiens)"
  MIC S. marcescens (µg/mL): 50

Problem: Looking for the measured MIC S. marcescens of PRT671 (RVVVCPLPCMNGGQCSSRNQCLCPPDFTGRFCQ; listed as Homo sapiens) , can you help?
Solution: 12.5

Problem: // returns reported MIC S. marcescens for input PRT613 (CQCSDNIDPNAVGNCNRLTGECLKCIYNTAGFYCDRCKDGFFGNPLAPNPADKCKA; listed as Homo sapiens)
Solution: 50

Problem: What value of measured MIC S. marcescens is listed for PRT647 (DVDECLRPDVCGEGHCVNTVGAFRCEYCDSGYRMTQRGRCE; listed as Homo sapiens) ?
Solution: 25

###

# MIC against E. coli BL21 values compiled below
- Test system: E. coli BL21
- Protocol Details: MIC against Gram-negative bacteria: E. coli BL21
- Assay type: cell-based
- Experimental Setup: E. coli BL21; 5×10^5 CFU/mL; 10 h cultivation at 37° C.
Numbers only; they are read as µg/mL.

Problem: What reported MIC against E. coli BL21 corresponds to PRT1411 (SVDNCPSNCYGNGDCISGTCHCFLGFLGPDCG; listed as Homo sapiens) on E. coli BL21?
Solution: 25

Problem: Which measured MIC against E. coli BL21 belongs to PRT1485 (DVNECRRPLERRVCHHSCHNTVGSFLCTCRPGFRLRADRVSCE; listed as Homo sapiens) , tested on E. coli BL21?
Solution: 50

Problem: Observed MIC against E. coli BL21 on E. coli BL21 for PRT1418 (IAHYLDRVVKEGCPGLCNGNGRCTLDLNGWHCVCQLGWRGAGCD; listed as Homo sapiens) , please.
Solution: 12.5

Problem: What measured MIC against E. coli BL21 is associated with PRT1424 (CQMFCNQTACPADCDPNTQASCECPEGYILDDGFICT; listed as Homo sapiens) on E. coli BL21?
Solution: 12.5
